src = paper PMC11540889

system: SW620 (Dukes' Type C, Grade IV invasive colorectal adenocarcinoma); assay: MTT cytotoxicity, SW620 cells; conditions: IS = CC50 MCRT ÷ CC50 SW620
Reported Index of selectivity MCRT / SW620 values follow for various molecules
MEASURED PROPERTY: Index of selectivity MCRT / SW620

C[N+](C)(CI)CCCCC=C(c1ccc(F)cc1)c1ccc(F)cc1 [Compound 4] ... 2.0
C[N+](C)(CI)CCCCC=C(c1ccccc1)c1ccccc1 [Compound 16] ... 1.9
C[N+](C)(CCl)CCCC=C(c1ccc(C(F)(F)F)cc1)c1ccc(C(F)(F)F)cc1 [Compound 8] ... 5.3
C[N+](C)(CCl)CCCCC=C(c1ccc(F)cc1)c1ccc(F)cc1 [Compound 3] ... 2.0
C[N+](C)(C)CCCC=C(c1ccc(C(F)(F)F)cc1)c1ccc(C(F)(F)F)cc1 [Compound 10] ... 6.4
O=c1[nH]cc(F)c(=O)[nH]1 [Compound 5-FU, 5-fluorouracil, reference compound] ... 31.2
C[N+](C)(CI)CCCC=C(c1ccccc1)c1ccccc1 [Compound 15] ... 1.6
C[N+](C)(CCl)CCCCC=C(c1ccc(C(F)(F)F)cc1)c1ccc(C(F)(F)F)cc1 [Compound 12] ... 7.3
